- Tgt: panel of more than 300 wild-type and mutant kinases (313 kinase panel) (Homo sapiens, UniProt P22455, V550L)
- Sequence (P22455 22-802 V550L): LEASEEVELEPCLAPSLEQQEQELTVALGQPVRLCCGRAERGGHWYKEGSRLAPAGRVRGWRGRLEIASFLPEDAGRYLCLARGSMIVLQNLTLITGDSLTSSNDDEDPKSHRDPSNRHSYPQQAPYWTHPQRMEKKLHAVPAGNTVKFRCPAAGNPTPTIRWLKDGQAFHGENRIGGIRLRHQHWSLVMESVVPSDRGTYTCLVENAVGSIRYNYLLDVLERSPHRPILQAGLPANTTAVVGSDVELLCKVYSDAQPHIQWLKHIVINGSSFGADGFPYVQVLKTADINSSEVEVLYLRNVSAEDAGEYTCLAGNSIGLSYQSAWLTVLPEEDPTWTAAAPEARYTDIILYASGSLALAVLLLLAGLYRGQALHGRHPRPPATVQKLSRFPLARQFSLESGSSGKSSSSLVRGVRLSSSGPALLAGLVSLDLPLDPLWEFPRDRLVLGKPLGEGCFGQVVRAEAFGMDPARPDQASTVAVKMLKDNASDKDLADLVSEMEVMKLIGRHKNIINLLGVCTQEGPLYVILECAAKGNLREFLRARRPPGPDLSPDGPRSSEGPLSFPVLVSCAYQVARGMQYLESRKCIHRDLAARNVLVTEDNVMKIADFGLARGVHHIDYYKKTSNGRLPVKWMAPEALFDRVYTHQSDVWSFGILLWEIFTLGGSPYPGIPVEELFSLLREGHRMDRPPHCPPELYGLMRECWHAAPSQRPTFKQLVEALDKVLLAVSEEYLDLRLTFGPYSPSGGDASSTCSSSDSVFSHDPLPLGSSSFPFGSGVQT
- Method Description: Kinase profiling in a biochemical assay panel (mobility shift assays and ELISA), %-inhibition at 1 μM; selectivity entropy
- Measurement Conditions: kinase FGFR4(V550L); compound at 1 μM
Quantity Name: %-inhibition of FGFR4(V550L) (%)
The reply should contain only the number, in %.

Measured %-inhibition of FGFR4(V550L), N#CC[C@H](C1CCCC1)n1cc(-c2ncnc3[nH]ccc23)cn1 [ruxolitinib] : 16

The recorded %-inhibition of FGFR4(V550L) for CC(=O)Nc1cccc(-n2c(=O)n(C3CC3)c(=O)c3c(Nc4ccc(I)cc4F)n(C)c(=O)c(C)c32)c1 [trametinib] is -0.155

The recorded %-inhibition of FGFR4(V550L) for Cc1ccc(C(=O)Nc2ccc(CN3CCN(C)CC3)c(C(F)(F)F)c2)cc1C#Cc1cnc2cccnn12 [ponatinib] is 20

// sample CCCS(=O)(=O)Nc1ccc(F)c(C(=O)c2c[nH]c3ncc(-c4ccc(Cl)cc4)cc23)c1F [vemurafenib] , its %-inhibition of FGFR4(V550L) was 0.45

%-inhibition of FGFR4(V550L) recorded for this compound, COc1cc2nccc(Oc3ccc(NC(=O)C4(C(=O)Nc5ccc(F)cc5)CC4)cc3)c2cc1OC [cabozantinib] , is -1.35

What the record says about COc1cc(Nc2c(C#N)cnc3cc(OCCCN4CCN(C)CC4)c(OC)cc23)c(Cl)cc1Cl [bosutinib] : %-inhibition of FGFR4(V550L) is -7

Kindly note the recorded %-inhibition of FGFR4(V550L) for CC(C)(C)c1nc(-c2cccc(NS(=O)(=O)c3c(F)cccc3F)c2F)c(-c2ccnc(N)n2)s1 [dabrafenib] , which is -1.08

###

- Tested on: panel of more than 300 wild-type and mutant kinases (313 kinase panel)
- Method Description: Kinase profiling in a biochemical assay panel (mobility shift assays and ELISA), %-inhibition at 1 μM; selectivity entropy
- Measurement Conditions: 1 µM
Quantity Name: %-inhibition of LYNb (%)
// note: answer is a bare numeric in %

Note to self: %-inhibition of LYNb recorded for Cc1cn(-c2cc(NC(=O)c3ccc(C)c(Nc4nccc(-c5cccnc5)n4)c3)cc(C(F)(F)F)c2)cn1 [nilotinib] was 85

%-inhibition of LYNb for C[C@@H](Oc1cc(-c2cnn(C3CCNCC3)c2)cnc1N)c1c(Cl)ccc(F)c1Cl [crizotinib] is 34

So, C#Cc1cccc(Nc2ncnc3cc(OCCOC)c(OCCOC)cc23)c1 [erlotinib] ? Its %-inhibition of LYNb was 60

The compound identified as Cc1ccc(Nc2nccc(N(C)c3ccc4c(C)n(C)nc4c3)n2)cc1S(N)(=O)=O [pazopanib] registered its %-inhibition of LYNb at 85

Given item CS(=O)(=O)CCNCc1ccc(-c2ccc3ncnc(Nc4ccc(OCc5cccc(F)c5)c(Cl)c4)c3c2)o1 [lapatinib] , the value recorded as its %-inhibition of LYNb is 7

// field: %-inhibition of LYNb; key: COc1cc2c(Nc3ccc(Br)cc3F)ncnc2cc1OCC1CCN(C)CC1 [vandetanib] ; value = 91

Looking up COc1cc(Nc2c(C#N)cnc3cc(OCCCN4CCN(C)CC4)c(OC)cc23)c(Cl)cc1Cl [bosutinib] , I found its %-inhibition of LYNb recorded as 94

Kindly note the recorded %-inhibition of LYNb for N#CC[C@H](C1CCCC1)n1cc(-c2ncnc3[nH]ccc23)cn1 [ruxolitinib] , which is 8

###

- System: panel of more than 300 wild-type and mutant kinases (313 kinase panel)
- Method Description: Kinase profiling in a biochemical assay panel (mobility shift assays and ELISA), %-inhibition at 1 μM; selectivity entropy
- Measurement Conditions: kinase PKCβ2; 1 μM
Quantity Name: %-inhibition of PKCβ2 (%)
Respond numerically; units are % and should not be typed.

%-inhibition of PKCβ2 for panel of more than 300 wild-type and mutant kinases (313 kinase panel) with input COc1cc2nccc(Oc3ccc(NC(=O)C4(C(=O)Nc5ccc(F)cc5)CC4)cc3)c2cc1OC [cabozantinib] equals -0.178

Tested on panel of more than 300 wild-type and mutant kinases (313 kinase panel): CO[C@H]1C[C@@H]2CC[C@@H](C)[C@@](O)(O2)C(=O)C(=O)N2CCCC[C@H]2C(=O)O[C@H]([C@H](C)C[C@@H]2CC[C@@H](OCCO)[C@H](OC)C2)CC(=O)[C@H](C)/C=C(\C)[C@@H](O)[C@@H](OC)C(=O)[C@H](C)C[C@H](C)/C=C/C=C/C=C/1C . Observed %-inhibition of PKCβ2: -9

The value of %-inhibition of PKCβ2 recorded for CCCS(=O)(=O)Nc1ccc(F)c(C(=O)c2c[nH]c3ncc(-c4ccc(Cl)cc4)cc23)c1F when tested on panel of more than 300 wild-type and mutant kinases (313 kinase panel) reads -3

Entry CO[C@H]1C[C@@H]2CC[C@@H](C)[C@@](O)(O2)C(=O)C(=O)N2CCCC[C@H]2C(=O)O[C@H]([C@H](C)C[C@@H]2CC[C@@H](OC(=O)C(C)(CO)CO)[C@H](OC)C2)CC(=O)[C@H](C)/C=C(\C)[C@@H](O)[C@@H](OC)C(=O)[C@H](C)C[C@H](C)/C=C/C=C/C=C/1C ; assay system panel of more than 300 wild-type and mutant kinases (313 kinase panel); %-inhibition of PKCβ2 recorded at -1.6

Readout %-inhibition of PKCβ2 for CC(C)(C)c1nc(-c2cccc(NS(=O)(=O)c3c(F)cccc3F)c2F)c(-c2ccnc(N)n2)s1 , test system panel of more than 300 wild-type and mutant kinases (313 kinase panel), was -3

Form field, %-inhibition of PKCβ2 with panel of more than 300 wild-type and mutant kinases (313 kinase panel), item CNC(=O)c1cc(Oc2ccc(NC(=O)Nc3ccc(Cl)c(C(F)(F)F)c3)c(F)c2)ccn1 : -9

Result for CC(=O)Nc1cccc(-n2c(=O)n(C3CC3)c(=O)c3c(Nc4ccc(I)cc4F)n(C)c(=O)c(C)c32)c1 , tested on panel of more than 300 wild-type and mutant kinases (313 kinase panel), %-inhibition of PKCβ2: -1.58

###

- System: forty-four human cancer cell lines
- Method Description: Cell proliferation assay (ATPlite, 72 hours) in the 44 cell line Oncolines panel
- Type: cell-based
- Measurement Conditions: Homo sapiens, SW48, cell line SW48; read-out: cell panel IC50, SW48
Quantity Name: IC50 (nM)
Could you give me the number in nM? Just the number is fine.

// O=c1[nH]cc(F)c(=O)[nH]1 : IC50 value = 1860

Note to self: IC50 recorded for CC(=O)O[C@@]12CO[C@@H]1C[C@H](O)[C@@]1(C)C(=O)[C@H](O)C3=C(C)[C@@H](OC(=O)[C@H](O)[C@@H](NC(=O)OC(C)(C)C)c4ccccc4)C[C@@](O)([C@@H](OC(=O)c4ccccc4)[C@H]21)C3(C)C was 3.39

In plain terms, CC(C)C[C@H](NC(=O)[C@H](Cc1ccccc1)NC(=O)c1cnccn1)B(O)O has a documented IC50 of 10

###

- Tgt: panel of more than 300 wild-type and mutant kinases (313 kinase panel) (Homo sapiens)
- Method Description: Kinase profiling in a biochemical assay panel (mobility shift assays and ELISA), %-inhibition at 1 μM; selectivity entropy
- Measurement Conditions: kinase NEK2; 1 μM
Quantity Name: %-inhibition of NEK2

Per the record, C[C@@H](Oc1cc(-c2cnn(C3CCNCC3)c2)cnc1N)c1c(Cl)ccc(F)c1Cl has %-inhibition of NEK2 of -2.69%

Consider Cc1ccc(Nc2nccc(N(C)c3ccc4c(C)n(C)nc4c3)n2)cc1S(N)(=O)=O . Its measured %-inhibition of NEK2 is 27%

Quick note, %-inhibition of NEK2 for CC(=O)Nc1cccc(-n2c(=O)n(C3CC3)c(=O)c3c(Nc4ccc(I)cc4F)n(C)c(=O)c(C)c32)c1 landed at 2.76%

%-inhibition of NEK2 measured on COc1cc2nccc(Oc3ccc(NC(=O)C4(C(=O)Nc5ccc(F)cc5)CC4)cc3)c2cc1OC [cabozantinib] = -0.384%

###

Provide the reported %-inhibition of NEK6 of each item.
- Tgt: panel of more than 300 wild-type and mutant kinases (313 kinase panel) (Homo sapiens)
- Method Description: Kinase profiling in a biochemical assay panel (mobility shift assays and ELISA), %-inhibition at 1 μM; selectivity entropy
- Measurement Conditions: kinase NEK6; 1 μM
The reply should contain only the number, in %.

The compound listed as O=S(=O)(c1cccc2cnccc12)N1CCCNCC1 has a reported %-inhibition of NEK6 of -2.46

For CC(=O)Nc1cccc(-n2c(=O)n(C3CC3)c(=O)c3c(Nc4ccc(I)cc4F)n(C)c(=O)c(C)c32)c1 the compound record lists %-inhibition of NEK6 as -0.324

The recorded %-inhibition of NEK6 for CS(=O)(=O)CCNCc1ccc(-c2ccc3ncnc(Nc4ccc(OCc5cccc(F)c5)c(Cl)c4)c3c2)o1 is -4.3

CC(C)(C)c1nc(-c2cccc(NS(=O)(=O)c3c(F)cccc3F)c2F)c(-c2ccnc(N)n2)s1 has a reported %-inhibition of NEK6 of -3

compound Cc1cn(-c2cc(NC(=O)c3ccc(C)c(Nc4nccc(-c5cccnc5)n4)c3)cc(C(F)(F)F)c2)cn1 , %-inhibition of NEK6 observed: 1

%-inhibition of NEK6 reading for Cc1ccc(C(=O)Nc2ccc(CN3CCN(C)CC3)c(C(F)(F)F)c2)cc1C#Cc1cnc2cccnn12 : -10

Input CCCS(=O)(=O)Nc1ccc(F)c(C(=O)c2c[nH]c3ncc(-c4ccc(Cl)cc4)cc23)c1F . Output %-inhibition of NEK6: -1.43

Reported %-inhibition of NEK6 of N#CC[C@H](C1CCCC1)n1cc(-c2ncnc3[nH]ccc23)cn1 : -6
